test.summary: NCI Yeast Anticancer Drug Screen. Data for the bub3 strain (AID 167)
condition.description: S. cerevisiae bub3 mutant strain, at 50.0 µM, hits give high values
This is part of a sample that, as a whole, favours compounds with a hit. Of some 79,000 tested, about 15% had one in any assay.
measured.endpoint: growth inhibition (%)
Just the number please, in %, no unit attached.

What measured growth inhibition goes with CC(C)CC(N)C(=O)NC(Cc1cc2ccccc2[nH]1)C(=O)O (stereo unspecified) ? 5.2

I'd like to know its growth inhibition. The compound in question is c1ccc(C2=NOC(c3ccccc3)N2C23CC4CC(CC(C4)C2)C3)cc1 (stereo unspecified) -13

Recorded growth inhibition of "O=C(O)CCc1ccc(O)c(O)c1" , please. 2.8

Field request: growth inhibition | item: "CC1(C)CC(=O)C(/C=N/C(=S)NCCc2ccccc2)=C(O)C1" -14.8

Any idea what its growth inhibition is? The compound is CCOC(=O)CCC1CCCO1 (stereo unspecified) -6.85

I'd like to know its growth inhibition. The compound in question is "CCCCNC(=O)c1cc(S(=O)(=O)n2cc[nH]c2=O)c(SC)cc1Cl" -5.05

###

test.summary: NCI Yeast Anticancer Drug Screen. Data for the sgs1 mgt1 strain (AID 161);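 note: 0% = growth of cultures given vehicle only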
condition.description: S. cerevisiae sgs1 mgt1 strain, at 50.0 µM
This is part of a sample that, as a whole, favours compounds with a hit. Of some 79,000 tested, about 15% had one in any assay. Calls of active or inactive are those of the source. Cut-off read from the data, not from the text of the source: active = growth inhibition above about 70%; inactive = the rest.
Outcome (select one): T for active, F for inactive

Hi, do you know how CCCC(=O)OC1C(CO)OC(n2cc(F)c(=O)[nH]c2=O)C1F (configuration not stated) came out in this test? F

Query: recorded result category for "CC1(C)CCc2cc3c(O)c(-c4ccccc4)c(=O)oc3cc2O1" in this test F

Any idea what this test logged for "NC(=O)CN1CC(C2=C(O)CN(CC(N)=O)C2=O)=CC1=O" ? F

Identify the outcome logged in this assay for the molecule shown: "CCCc1cc(C)cc(N=Cc2ccccc2)c1O" T

Answer briefly: the call reported for "O=C1CC2(CCCCC2)C(=O)N1c1cc([N+](=O)[O-])ccn1" in this assay. F

Per the records of this test, what outcome belongs to "Nc1cc(=O)n(-c2ccccc2)nc1Cl" ? F

Write down the call the test reported for this molecule. Item: "O=C(Cc1nc2sc3c(c2c(=O)[nH]1)CCCC3)Nc1ccccc1" F

# fetch the recorded call for "CC(=O)Nc1cc(Br)cc2c1-c1ccc(Br)cc1C2" here F

For this molecule, state the assay outcome: COc1ccc(C2=Nc3cccc4c3N(CCC4)C2c2ccc(OC)cc2)cc1 (configuration not stated) F

What did this assay record as the result for COC(=O)CC1C=CC(OC)[C@@]2(C)C(=O)C(OC)=CC(=O)[C@@H]12 (some centres not stated) ? F

Which result was noted for this molecule in the test: "COc1nc2[nH]ccc2c(=O)[nH]1" F

I would be grateful if you could indicate the recorded call for "[O-]c1c(Cl)c(Cl)c(O[P+](c2ccccc2)(c2ccccc2)c2ccccc2)c(Cl)c1Cl" . T

Hello, I am checking results. What call was entered for "CC(=O)Nc1ccc(S(=O)(=O)N/N=C(\C)c2csc3ccccc23)cc1" ? F

Which result was noted for this molecule in the test: "COC(=O)c1cc(C(=O)OC)c(C/C(=N/Nc2ccc([N+](=O)[O-])cc2[N+](=O)[O-])C(=O)Nc2cccc(C(F)(F)F)c2)nc1C/C(=N/Nc1ccc([N+](=O)[O-])cc1[N+](=O)[O-])C(=O)Nc1cccc(C(F)(F)F)c1" F

So what was the verdict on "Cc1cnc(N/N=C/c2c(CO)cnc(C)c2O)s1" in this test? F

In this assay, the call recorded for O=C(O)c1cccc(S(=O)(=O)NN2C(=O)CSC2c2ccccc2)c1 (configuration not stated) was what? F

What did this assay record as the result for "COc1n[n+]([O-])c(OC)cc1[N+](=O)[O-]" ? F

Returns: the outcome recorded for "CCOC(CO)OCC" in this assay. F

So what was the verdict on CC(OP(=O)(O)O)C(N)C(=O)O (configuration not stated) in this test? F

Recorded call for CCCOC(=O)C(O)Cc1ccccc1 (configuration not stated) ? F

I would be grateful if you could indicate the recorded call for "Fc1c(F)c(F)c(SN=S=Nc2ccccc2)c(F)c1F" . F

Identify the outcome logged in this assay for the molecule shown: "C/C(=N\Nc1cc(C)nc2cc3c(cc12)OCO3)c1cn(C)n(-c2ccccc2)c1=O" F

###

test.summary: NCI Yeast Anticancer Drug Screen. Data for the rad50 strain (AID 155);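 note: 0% = growth of vehicle-only cultures of the same strain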
condition.description: S. cerevisiae rad50 strain growth inhibition; at 50.0 µM; hits give high values
The panel holds about 79,000 compounds, 15% with a hit somewhere; the sample as a whole holds those more often.
Exercise: for every item that follows, state its recorded growth inhibition.
# value in %; strip the unit string

What growth inhibition value was documented for this compound, "CN(C)c1noc2c1c(=O)n(C)c(=O)n2C" ? -27.8

Reported growth inhibition for "CCOC(=O)C(Cc1ccc(OCc2ccccc2)c(OCc2ccccc2)c1)(NC=O)C(=O)OCC" : what is it? 36.6

Form field: reported growth inhibition of "C/C(C/C(C)=N/C(N)=S)=N\C(N)=S" -37.5

Tell me the measured growth inhibition of "CCCCCCCCCCCCN1CCCN(CCCCCCCCCCCC)CC1" , please. 56.7

Which growth inhibition is listed for "Cc1ccc(S(=O)(=O)NCCC(=O)O)cc1" ? -1.75

For "COc1n[n+]([O-])c(OC)cc1[N+](=O)[O-]" , what is its reported growth inhibition? 51.7

###

Can you tell me growth inhibition for the items I'm about to list?
test.summary: NCI Yeast Anticancer Drug Screen. Data for the sgs1 mgt1 strain (AID 161);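 note: 0% = growth of cultures given vehicle only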
condition.description: S. cerevisiae sgs1 mgt1 strain, at 50.0 µM, hits give high values
This is part of a sample that, as a whole, favours compounds with a hit. Of some 79,000 tested, about 15% had one in any assay.
Your answer is read as %, so omit the unit and give the number.

Item under review: "Nc1nc(N)c2nc(/C=C/c3ccc4c(c3)OCO4)cnc2n1" . Reported growth inhibition? -4.5

Can you share its growth inhibition? I mean this compound: "COc1cc(N=Nc2ccc(S(=O)(=O)O)cc2)ccc1N=Nc1ccc2c(S(=O)(=O)O)cccc2c1O" 14.3

Returns the measured growth inhibition for the input compound. Input: "C=C1N(C)c2ccccc2C1(C)C" -12.2

What does the record list as growth inhibition for "CCOC(=O)c1nnc2cc(-c3ccccc3)nn2c1C" ? 18.1

Which value of growth inhibition has been reported for "O=C1OCC(CN2CCC(n3c(=O)[nH]c4ccccc43)CC2)=C1c1ccccc1" in the records? -7.15

growth inhibition lookup needed for "COc1ccc(Cl)cc1NC(=O)Oc1ccccc1C(N)=O" , thanks. 24.6

growth inhibition for CC(=O)OC(C)C(O)C(O)C(/C=C/C1CC=CC(=O)O1)OC(C)=O (configuration not stated) ? 23.6

For the compound shown here, "CC(C)CCN(C(=O)CCl)c1ccccc1" , give the reported growth inhibition. 52.4

# input compound: "NC(=S)Nc1ccccc1Cl" ; wanted: its growth inhibition 15.6

Given "O=C1C(OC(=O)c2ccccc2)=C(OC(=O)c2ccccc2)C(=O)C(OC(=O)c2ccccc2)=C1OC(=O)c1ccccc1" , state its recorded growth inhibition. 13.8

What does the record list as growth inhibition for CCN(CCO)CC(O)Cn1cnc2c(N)ncnc21 (configuration not stated) (tested in a mixture with another compound) ? -11.8

I would be grateful if you could share the reported growth inhibition for COc1cc2cc3c(c(O)c2c(O)c1/C=C/C(C)C)C(=O)CC(C)(OC(C)=O)C3 (configuration not stated) . 36.5

// query growth inhibition value for entry "COC(=O)CCC(=O)c1cc(OC)c2cc3ccccc3cc2c1OC" -2.55

Which growth inhibition value belongs to Cc1ccc(S(=O)CC(CF)OCn2cc(C)c(=O)[nH]c2=O)cc1 (configuration not stated) ? -42.6

Report growth inhibition for CCC1([N+](=O)[O-])CC2C=CC1C2 (configuration not stated) please. -26

Quick one: growth inhibition of "CO/C=C(/C#N)S(=O)(=O)/C(C#N)=C/OC" ? 34

Return reported growth inhibition; argument: "OC1(c2ccc(C3(O)C(c4ccccc4)=C(c4ccccc4)C(c4ccccc4)=C3c3ccccc3)cc2)C(c2ccccc2)=C(c2ccccc2)C(c2ccccc2)=C1c1ccccc1" -1.7

May I ask what growth inhibition has been recorded for "Nc1ccc(C(=O)N/N=C/c2ccc(Cl)cc2Cl)cc1" ? 11.9

Given the entry "Cc1ccc(S(=O)(=O)CCC(=O)c2ccc([N+](=O)[O-])cc2)cc1" , report its measured growth inhibition. 14.8

Consider the compound shown here: CC(=O)OC1CCCC2CCCC21 (configuration not stated) What is its recorded growth inhibition? 1.25

// lookup growth inhibition for "Cc1cc(=O)n2nc(SCc3ccccc3)sc2n1" 28.9

Give the measured growth inhibition of O=c1c2ccccc2ncn1C1OC(CO)C(O)C1O (configuration not stated) . -13.9
